system-under-test: vanilloid receptor 1 (VR1/TRPV1 receptor) (Homo sapiens, UniProt Q8NER1)
protocol-summary: FLIPR functional assay (Ca2+ influx, capsaicin) on the vanilloid receptor 1
Format: cell-based
assay-context: capsaicin (Cap) stimulus, compound at 5 μM, read-out: inhibition (as a percentage) Cap, (human being)
test-readout: inhibition at 5 µM (%)
Reply numerically in %, unit not repeated.

Ask: Find inhibition at 5 µM (vanilloid receptor 1 (VR1/TRPV1 receptor) (Homo sapiens, UniProt Q8NER1)) for the entry CC(C(=O)NCc1ccc(C(F)(F)F)nc1N1CCOCC1)c1ccc(CNS(C)(=O)=O)c(F)c1 (centres unmarked)
Reply: 53

Ask: Could you do the same for COC1CN(c2nc(C(F)(F)F)ccc2CNC(=O)C(C)c2ccc(CNS(C)(=O)=O)c(F)c2)C1 (centres unmarked) , please?
Reply: 46

Ask: Could you do the same for CCNc1nc(C(F)(F)F)ccc1CNC(=O)C(C)c1ccc(CNS(C)(=O)=O)c(F)c1 (centres unmarked) , please?
Reply: 71

Ask: Could you do the same for CC(C(=O)NCc1ccc(C(F)(F)F)nc1N1CCCC1)c1cccc(CNS(C)(=O)=O)c1 (centres unmarked) , please?
Reply: 48

Ask: Could you do the same for CC1CCN(c2nc(C(F)(F)F)ccc2CNC(=O)C(C)c2ccc(F)c(CNS(C)(=O)=O)c2)CC1 (centres unmarked) , please?
Reply: 58

The reported numbers originate from patent US8765733B2.
